- testTarget: Adenosine receptor A2a (Homo sapiens) (UniProt P29274)
- Sequence (P29274 whole entry): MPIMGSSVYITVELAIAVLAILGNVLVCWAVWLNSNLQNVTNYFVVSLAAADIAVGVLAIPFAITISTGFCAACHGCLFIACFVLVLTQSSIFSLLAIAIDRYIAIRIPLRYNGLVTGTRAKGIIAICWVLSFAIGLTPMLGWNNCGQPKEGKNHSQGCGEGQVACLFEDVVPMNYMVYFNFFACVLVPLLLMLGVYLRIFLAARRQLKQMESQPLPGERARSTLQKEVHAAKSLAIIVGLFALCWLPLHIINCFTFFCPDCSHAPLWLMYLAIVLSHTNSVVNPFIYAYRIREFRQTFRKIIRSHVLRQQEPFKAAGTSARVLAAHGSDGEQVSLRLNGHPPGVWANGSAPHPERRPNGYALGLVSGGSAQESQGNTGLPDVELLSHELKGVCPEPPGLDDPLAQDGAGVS
- methodNotes: Displacement of [3H]ZM2421385 from adenosine A2A receptor expressed in human HeLa cell membranes at 1 uM incubated for 30 mins by scintillation counting method
- conditionsUsed: Cell membrane
# inhibition annotations

compound | testTarget | inhibition
CC1=C(C(=O)OC(C)(C)C)C(c2ccoc2)NC(=O)N1C (racemic) | Adenosine receptor A2a (Homo sapiens) (UniProt P29274) | 16%
CC(=O)C1=C(C)NC(=O)NC1c1ccsc1 (racemic) | Adenosine receptor A2a (Homo sapiens) (UniProt P29274) | 1%
CCCOC(=O)C1=C(C)N(C)C(=O)NC1c1cccs1 (racemic) | Adenosine receptor A2a (Homo sapiens) (UniProt P29274) | 1%
CC1=C(C(=O)OCC2CC2)C(c2ccoc2)NC(=O)N1 (racemic) | Adenosine receptor A2a (Homo sapiens) (UniProt P29274) | 43%
CCN(CC)C(=O)C1=C(C)NC(=O)NC1c1ccsc1 (racemic) | Adenosine receptor A2a (Homo sapiens) (UniProt P29274) | 9%
CCOC(=O)C1=C(C)NC(=O)N[C@@H]1c1ccsc1 | Adenosine receptor A2a (Homo sapiens) (UniProt P29274) | 9%
CC1=C(C(=O)C2CC2)C(c2ccsc2)NC(=O)N1 (racemic) | Adenosine receptor A2a (Homo sapiens) (UniProt P29274) | 4%
CC1=C(C(=O)OCc2ccccc2)C(c2ccoc2)NC(=O)N1 (racemic) | Adenosine receptor A2a (Homo sapiens) (UniProt P29274) | 24%
CC1=C(C(=O)OCc2ccccc2)C(c2ccco2)NC(=O)N1 (racemic) | Adenosine receptor A2a (Homo sapiens) (UniProt P29274) | 26%
CC1=C(C(=O)OCC2CCC2)C(c2ccsc2)NC(=O)N1 (racemic) | Adenosine receptor A2a (Homo sapiens) (UniProt P29274) | 32%
CCC(CC)OC(=O)C1=C(C)NC(=O)NC1c1ccoc1 (racemic) | Adenosine receptor A2a (Homo sapiens) (UniProt P29274) | 2%
CC1=C(C(=O)OCC(C)C)C(c2ccoc2)NC(=S)N1 (racemic) | Adenosine receptor A2a (Homo sapiens) (UniProt P29274) | 35%
CC1=C(C(=O)OCC(C)C)C(c2ccsc2)NC(=S)N1 (racemic) | Adenosine receptor A2a (Homo sapiens) (UniProt P29274) | 1%
CC1=C(C(=O)OCc2ccccc2)C(c2ccco2)NC(=O)N1C (racemic) | Adenosine receptor A2a (Homo sapiens) (UniProt P29274) | 37%
CC1=C(C(=O)OC(C)C)C(c2ccsc2)NC(=O)N1C (racemic) | Adenosine receptor A2a (Homo sapiens) (UniProt P29274) | 22%
COC(=O)C1=C(C)NC(=O)NC1c1ccoc1 (racemic) | Adenosine receptor A2a (Homo sapiens) (UniProt P29274) | 3%
CC1=C(C(=O)OCC(C)C)C(c2cccs2)NC(S)=N1 (racemic) | Adenosine receptor A2a (Homo sapiens) (UniProt P29274) | 2%
CCC(C)OC(=O)C1=C(C)NC(=O)NC1c1ccoc1 (racemic) | Adenosine receptor A2a (Homo sapiens) (UniProt P29274) | 1%
CC1=C(C(=O)OC2CCCC2)C(c2ccoc2)NC(=O)N1 (racemic) | Adenosine receptor A2a (Homo sapiens) (UniProt P29274) | 1%
CC1=C(C(=O)NC(C)C)C(c2ccsc2)NC(=O)N1 (racemic) | Adenosine receptor A2a (Homo sapiens) (UniProt P29274) | 1%
CCCOC(=O)C1=C(C)N(C)C(=O)NC1c1ccco1 (racemic) | Adenosine receptor A2a (Homo sapiens) (UniProt P29274) | 2%
CC1=C(C(=O)OC2CCC2)C(c2ccco2)NC(=O)N1 (racemic) | Adenosine receptor A2a (Homo sapiens) (UniProt P29274) | 41%
